B1: CPEB3 Ribozyme (parent)
chain: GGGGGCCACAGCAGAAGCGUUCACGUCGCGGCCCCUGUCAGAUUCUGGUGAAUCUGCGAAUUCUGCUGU

# Variants of: B1
# test-protocol: self-cleavage, relative activity (ratio to wild type); higher = more cleavage; co-transcriptional
parameter: self-cleavage

Some variants with recorded self-cleavage:
>>> df
   mutant_designation      parameter  test_value
0           G31C U69G  self-cleavage       0.444
1           C12A C66G  self-cleavage       0.561
2           G14A U64G  self-cleavage       0.576

Q: self-cleavage for G14U U20A ?
Ans: 0.121

Q: Using the record for G1C G31A , report its self-cleavage.
Ans: 0.272

Q: Request the reported self-cleavage associated with C12G U69G
Ans: 1.04

Q: Which self-cleavage is listed for C7G C35G ?
Ans: 0.0899

Q: Requested read-out: self-cleavage. Entry: C57U U64G
Ans: 0.365
